tested on: Hepatotoxicity; test: FDA HLAED, alkaline phosphatase increase; conditions: human
Below: a set of entries, each annotated with reported Alkaline Phosphatase Increase - Index Value.
Enter a number only.

Consider the reported Alkaline Phosphatase Increase - Index Value for these compounds:
[[record]]
compound = "CO/N=C(\\C(=O)N[C@@H]1C(=O)N2C(C(=O)O)=C(COC(N)=O)CS[C@H]12)c1ccco1"
experimental_result = 0

[[record]]
compound = "C=C1/C(=C\\C=C2/CCC[C@]3(C)[C@@H]([C@H](C)CCCC(C)(C)O)CC[C@@H]23)C[C@@H](O)C[C@@H]1O"
experimental_result = 0

[[record]]
compound = "CC(C)NCC(O)c1ccc(NS(C)(=O)=O)cc1 (configuration not stated)"
experimental_result = 1


Task item: Could you share which Alkaline Phosphatase Increase - Index Value value was measured for O=C(O)CCc1nc(-c2ccccc2)c(-c2ccccc2)o1 ?
Reply: 0.2

Task item: And for OC(Cn1cncn1)(Cn1cncn1)c1ccc(F)cc1F ?
Reply: 8.4

Task item: And for O=C(NCC1CCCCN1)c1cc(OCC(F)(F)F)ccc1OCC(F)(F)F (configuration not stated) [FLECAINIDE] ?
Reply: 8.3

Task item: And for Nc1nc(/C(=C/CC(=O)O)C(=O)N[C@@H]2C(=O)N3C(C(=O)O)=CCS[C@H]23)cs1 ?
Reply: 0

Task item: And for COC(=O)C1=C(C)NC(C)=C(C(=O)OC)C1c1ccccc1[N+](=O)[O-] ?
Reply: 0.3

Task item: And for CC1=C(C(=O)O)N2C(=O)[C@@H](NC(=O)[C@H](N)c3ccc(O)cc3)[C@H]2SC1 ?
Reply: 0

Task item: And for C[C@]12CC[C@H]3[C@@H](CCC4=CC(=O)CC[C@@]43C)[C@@H]1CC[C@@H]2OC(=O)CCC1CCCC1 [TESTOSTERONE CYPIONATE] ?
Reply: 0

Task item: And for CCC1=C[C@@H]2CN(C1)Cc1c([nH]c3ccccc13)[C@@](C(=O)OC)(c1cc3c(cc1OC)N(C)[C@H]1[C@@](O)(C(=O)OC)[C@H](OC(C)=O)[C@]4(CC)C=CCN5CC[C@]31[C@@H]54)C2 ?
Reply: 2.8

Task item: And for NCC(CC(=O)O)c1ccc(Cl)cc1 (configuration not stated) ?
Reply: 5.4

====

Below: a set of entries, each annotated with reported Alkaline Phosphatase Increase - Index Value.
system: Hepatotoxicity; test: FDA HLAED, alkaline phosphatase increase; settings: human
Enter a number only.

Consider the reported Alkaline Phosphatase Increase - Index Value for these molecules:
[[record]]
molecule = "Cn1nnnc1SCC1=C(C(=O)[O-])N2C(=O)[C@@H](NC(=O)[C@H](OC=O)c3ccccc3)[C@H]2SC1.[Na+] [CEFAMANDOLE NAFATE]"
experimental_result = 0

[[record]]
molecule = "COc1ccc([C@@H]2Sc3ccccc3N(CCN(C)C)C(=O)[C@@H]2OC(C)=O)cc1"
experimental_result = 0.1

[[record]]
molecule = "COc1cc2nc(N3CCN(C(=O)C4COc5ccccc5O4)CC3)nc(N)c2cc1OC (configuration not stated)"
experimental_result = 0.2

[[record]]
molecule = "Clc1ccc(CO/N=C(\\Cn2ccnc2)c2ccc(Cl)cc2Cl)c(Cl)c1"
experimental_result = 0

[[record]]
molecule = "COC(=O)CCc1ccc(OCC(O)CNC(C)C)cc1 (configuration not stated)"
experimental_result = 0


Task item: Could you share which Alkaline Phosphatase Increase - Index Value value was measured for C[C@@]12CCCCC[C@@H](Cc3ccc(O)cc31)[C@@H]2N ?
Reply: 0

Task item: And for CO[C@H]1/C=C/O[C@@]2(C)Oc3c(C)c(O)c4c(c3C2=O)C2=NC3(CCN(CC(C)C)CC3)NC2=C(NC(=O)/C(C)=C\C=C\[C@H](C)[C@H](O)[C@@H](C)[C@@H](O)[C@@H](C)[C@H](OC(C)=O)[C@@H]1C)C4=O ?
Reply: 15.9

====

tested on: Hepatotoxicity; assay: FDA HLAED, lactate dehydrogenase (LDH) increase; conditions: human
Below: a set of entries, each annotated with reported LDH Increase - Index Value.
Enter a number only.

Task item: Could you share which LDH Increase - Index Value value was measured for CN1CC[C@]23c4c5ccc(O)c4O[C@H]2C(=O)CC[C@H]3[C@H]1C5 [HYDROMORPHONE] ?
Reply: 0

Task item: And for CC1(C)O[C@@H]2[C@@H](CO[C@@]3(COS(N)(=O)=O)OC(C)(C)O[C@@H]23)O1 [TOPIRAMATE] ?
Reply: 0

Task item: And for CC(C)(C(=O)O)c1ccc(C(O)CCCN2CCC(C(O)(c3ccccc3)c3ccccc3)CC2)cc1 (stereo not drawn) [FEXOFENADINE] ?
Reply: 0

Task item: And for COCC1=C(C(=O)O)N2C(=O)[C@@H](NC(=O)/C(=N\OC)c3csc(N)n3)[C@H]2SC1 [CEFPODOXIME] ?
Reply: 0.2

Task item: And for Cc1cc2c(s1)Nc1ccccc1N=C2N1CCN(C)CC1 [OLANZAPINE] ?
Reply: 2.1

Task item: And for Cc1nnc2n1-c1ccc(Cl)cc1C(c1ccccc1Cl)=NC2 [TRIAZOLAM] ?
Reply: 0

Task item: And for Cn1cc([S+](C)[O-])c(=O)c2ccc(F)cc21 (stereo not drawn) [FLOSEQUINAN] ?
Reply: 56.6

Task item: And for C[C@@H]1CN([C@H]2CC[C@](C#N)(c3ccc(F)cc3)CC2)CC[C@]1(C(=O)O)c1ccccc1 [LEVOCABASTINE] ?
Reply: 0

====

test system: Hepatotoxicity; assay: FDA HLAED, serum glutamic pyruvic transaminase (SGPT) increase; settings: human
test.readout: SGPT Increase - Activity Score

[[record]]
molecule = "CC(=O)[C@]1(O)Cc2c(O)c3c(c(O)c2[C@@H](O[C@H]2C[C@H](N)[C@H](O)[C@H](C)O2)C1)C(=O)c1ccccc1C3=O [IDARUBICIN]"
experimental_result = "Inactive"

[[record]]
molecule = "Nc1cc(-c2ccncc2)c[nH]c1=O [INAMRINONE]"
experimental_result = "Inactive"

[[record]]
molecule = "CN(C/C=C/C#CC(C)(C)C)Cc1cccc2ccccc12 [TERBINAFINE]"
experimental_result = "Inactive"

[[record]]
molecule = "O=C1CC[C@@]2(O)[C@H]3Cc4ccc(O)c5c4[C@@]2(CCN3CC2CC2)[C@H]1O5 [NALTREXONE]"
experimental_result = "Inactive"

[[record]]
molecule = "O=C(NCC(O)CO)c1c(I)c(C(=O)NCC(O)CO)c(I)c(N(CCO)C(=O)CO)c1I (stereo not drawn) [IOVERSOL]"
experimental_result = "Inactive"


Task item: Identify the measured SGPT Increase - Activity Score of CCC(=O)O[C@@H](O[P@](=O)(CCCCc1ccccc1)CC(=O)N1C[C@H](C2CCCCC2)C[C@H]1C(=O)O)C(C)C [FOSINOPRIL] for Hepatotoxicity.
Reply: Inactive

Task item: And for CC(C)NCC(O)COc1ccc(COCCOC(C)C)cc1 (stereo not drawn) [BISOPROLOL] ?
Reply: Inactive

Task item: And for NNC(=O)c1ccncc1 [ISONIAZID] ?
Reply: Active

Task item: And for CCN(CC)CCOc1ccc(/C(=C(/Cl)c2ccccc2)c2ccccc2)cc1 [ENCLOMIPHENE] ?
Reply: Active

Task item: And for CC(CN(C)C)CN1c2ccccc2CCc2ccccc21 (stereo not drawn) [TRIMIPRAMINE] ?
Reply: Inactive

Task item: And for OC(Cn1cncn1)(Cn1cncn1)c1ccc(F)cc1F [FLUCONAZOLE] ?
Reply: Active

Task item: And for CCN1CCN(C(=O)N[C@@H](C(=O)N[C@@H]2C(=O)N3[C@@H]2SC(C)(C)[C@@H]3C(=O)O)c2ccccc2)C(=O)C1=O [PIPERACILLIN] ?
Reply: Inactive

Task item: And for Fc1ccc([C@@H]2CCNC[C@H]2COc2ccc3c(c2)OCO3)cc1 [PAROXETINE] ?
Reply: Inactive

====

system: Hepatotoxicity; assay: FDA HLAED, serum glutamic oxaloacetic transaminase (SGOT) increase; conditions: human
test.readout: SGOT Increase - Number of Reports

Consider the reported SGOT Increase - Number of Reports for these compounds:
[[record]]
compound = "CC[C@H]1OC(=O)[C@H](C)[C@@H](O[C@H]2C[C@@](C)(OC)[C@@H](O)[C@H](C)O2)[C@H](C)[C@@H](O[C@@H]2O[C@H](C)C[C@H](N(C)C)[C@H]2O)[C@](C)(OC)C[C@@H](C)C(=O)[C@H](C)[C@@H](O)[C@]1(C)O"
test_readout = "SGOT Increase - Number of Reports"
experimental_result = ">= 4"

[[record]]
compound = "CC1COc2c(N3CCN(C)CC3)c(F)cc3c(=O)c(C(=O)O)cn1c23 (configuration not stated)"
test_readout = "SGOT Increase - Number of Reports"
experimental_result = ">= 4"

[[record]]
compound = "O=C(O)COCCN1CCN(C(c2ccccc2)c2ccc(Cl)cc2)CC1 (configuration not stated)"
test_readout = "SGOT Increase - Number of Reports"
experimental_result = "< 4"

[[record]]
compound = "CC(=O)NO [ACETOHYDROXAMIC ACID]"
test_readout = "SGOT Increase - Number of Reports"
experimental_result = "< 4"

[[record]]
compound = "Nc1ccn([C@@H]2O[C@H](CO)[C@@H](O)[C@@H]2O)c(=O)n1"
test_readout = "SGOT Increase - Number of Reports"
experimental_result = ">= 4"


Task item: Could you share which SGOT Increase - Number of Reports value was measured for CNCCC(Oc1ccc(C(F)(F)F)cc1)c1ccccc1 (configuration not stated) ?
Reply: >= 4

Task item: And for CN1CCN2c3ncccc3Cc3ccccc3C2C1 (configuration not stated) ?
Reply: >= 4

Task item: And for O=C(O)P(=O)(O)O ?
Reply: >= 4

Task item: And for COc1ccccc1OCCNCC(O)COc1cccc2[nH]c3ccccc3c12 (configuration not stated) ?
Reply: < 4

Task item: And for Cc1cn([C@H]2C[C@H](N=[N+]=[N-])[C@@H](CO)O2)c(=O)[nH]c1=O ?
Reply: >= 4

Task item: And for CCc1c2c(nc3ccc(OC(=O)N4CCC(N5CCCCC5)CC4)cc13)-c1cc3c(c(=O)n1C2)COC(=O)[C@]3(O)CC ?
Reply: < 4

Task item: And for CC[C@H]1OC(=O)[C@H](C)[C@@H](O[C@H]2C[C@@](C)(OC)[C@@H](O)[C@H](C)O2)[C@H](C)[C@@H](O[C@@H]2O[C@H](C)C[C@H](N(C)C)[C@H]2O)[C@](C)(O)C[C@@H](C)C(=O)[C@H](C)[C@@H](O)[C@]1(C)O ?
Reply: >= 4

Task item: And for CCOC(=O)[C@H](CCc1ccccc1)N[C@@H](C)C(=O)N1CCC[C@H]1C(=O)O ?
Reply: >= 4

Task item: And for CC(C)(C)NCC(O)COc1cccc2c1CC(O)C(O)C2 (configuration not stated) ?
Reply: >= 4

Task item: And for O=C(O)CCc1nc(-c2ccccc2)c(-c2ccccc2)o1 ?
Reply: >= 4

Task item: And for COc1ccc2cc(CCC(C)=O)ccc2c1 ?
Reply: >= 4

Task item: And for CCN[C@H]1C[C@H](C)S(=O)(=O)c2sc(S(N)(=O)=O)cc21 [DORZOLAMIDE] ?
Reply: < 4
